- Tested on: Human immunodeficiency virus 1
- Assay name: Antiviral activity in an in vitro HIV replication assay
- Type: functional, organism-based
- Test settings: Human immunodeficiency virus 1
Measurement type: IC90 (nM)

(A) C=CCN(C(=O)OCc1ccc([N+](=O)[O-])cc1)C1CCN(CC[C@](C)(CN(C)S(=O)(=O)c2ccccc2)c2ccccc2)CC1
(B) CN(C[C@@](C)(CCN1CCC2C(CCC(=O)N2Cc2ccc([N+](=O)[O-])cc2)C1)c1ccccc1)S(=O)(=O)c1ccccc1 (mixture of isomers)
Recorded IC90 values differ for A and B ; which one is higher? # reply format: chosen label B

###

- Study system: C-C chemokine receptor type 5 (Homo sapiens)
- Sequence (P51681 whole entry): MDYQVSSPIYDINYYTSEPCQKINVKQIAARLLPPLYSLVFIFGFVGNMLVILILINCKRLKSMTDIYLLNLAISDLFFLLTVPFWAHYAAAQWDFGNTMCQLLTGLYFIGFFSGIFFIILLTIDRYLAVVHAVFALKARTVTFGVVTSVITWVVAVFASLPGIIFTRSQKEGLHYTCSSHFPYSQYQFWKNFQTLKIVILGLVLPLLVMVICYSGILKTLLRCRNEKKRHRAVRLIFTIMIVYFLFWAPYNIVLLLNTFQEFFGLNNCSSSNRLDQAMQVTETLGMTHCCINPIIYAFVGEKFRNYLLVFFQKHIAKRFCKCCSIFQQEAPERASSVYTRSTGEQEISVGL
- Assay name: Inhibitory concentration against human C-C chemokine receptor type 5 in CHO cells with [125I]-MIP-1 alpha radioligand
pIC50: −log10 of the molar value.
Measurement type: pIC50

Solved entries (count: 6):
CN(C[C@@H](CCN1CCC(N2C[C@@H](c3ccccc3)OC2=O)CC1)c1ccccc1)S(=O)(=O)c1ccccc1    7.50
C[C@@H]1[C@@H](c2ccccc2)OC(=O)N1C1CCN(CC[C@H](CN(C)S(=O)(=O)c2ccccc2)c2ccccc2)CC1    6.46
CN(CC(C)(CCN1CCC2C(CCN2C(=O)OCc2ccc([N+](=O)[O-])cc2)C1)c1ccccc1)S(=O)(=O)c1ccccc1 (single isomer, unassigned; isomer B)    8.70
CN(C[C@](C)(CCN1CCC2C(CCN2C(=O)OCc2ccc([N+](=O)[O-])cc2)C1)c1ccccc1)S(=O)(=O)c1ccccc1 (mixture of isomers)    8.44
CN(C[C@@](C)(CCN1CCC2C(CCC(=O)N2Cc2ccccc2)C1)c1ccccc1)S(=O)(=O)c1ccccc1 (some centres not stated)    8.00
C=CCN(C(=O)OCc1ccc([N+](=O)[O-])cc1)C1CCN(CC[C@](C)(CN(C)S(=O)(=O)c2ccccc2)c2ccccc2)CC1    9.00

(I) CN(C[C@@](C)(CCN1CCC2C(CCN2C(=O)Cc2ccccc2)C1)c1ccccc1)S(=O)(=O)c1ccccc1 (mixture of isomers)
(II) C[C@H]1[C@@H](c2ccccc2)OC(=O)N1C1CCN(CC[C@H](CN(C)S(=O)(=O)c2ccccc2)c2ccccc2)CC1
(III) CN(CC(C)(CCN1CCC2C(CCN2C(=O)OC(C)(C)C)C1)c1ccccc1)S(=O)(=O)c1ccccc1 (single isomer, unassigned; isomer B)
(IV) CN(C[C@@H](CCN1CCC2C(CCN2C(=O)OC(C)(C)C)C1)c1ccccc1)S(=O)(=O)c1ccccc1 (some centres not stated)
Would you mind ranking these compounds by ascending pIC50? Give the order by naming the labels one after another as requested. II, IV, I, III
(II: 7.44, IV: 7.80, I: 8.19, III: 8.70)
